# pKi annotations
- Tested system: rat OX1R (Rattus norvegicus)
- Construct: expressed in transfected cells; host or cells: HEK; cells from GNF, San Diego
- Sequence (P56718 whole entry): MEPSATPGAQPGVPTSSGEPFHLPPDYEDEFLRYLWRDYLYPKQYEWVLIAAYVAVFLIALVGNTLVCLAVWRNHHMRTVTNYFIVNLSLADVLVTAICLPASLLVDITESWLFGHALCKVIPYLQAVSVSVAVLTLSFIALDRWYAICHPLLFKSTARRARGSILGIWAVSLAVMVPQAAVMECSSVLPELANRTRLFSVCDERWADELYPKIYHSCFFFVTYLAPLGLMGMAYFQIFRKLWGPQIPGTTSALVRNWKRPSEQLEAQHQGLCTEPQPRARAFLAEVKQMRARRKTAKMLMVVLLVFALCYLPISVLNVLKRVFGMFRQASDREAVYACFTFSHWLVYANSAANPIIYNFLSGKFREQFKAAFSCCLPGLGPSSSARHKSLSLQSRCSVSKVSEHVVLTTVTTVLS
- Assay method text: FLIPR orexin A-stimulated calcium accumulation, rat OX1R
- Assay type: cell-based
- Condition: HEK cells, antagonist incubation 1 h
pKi here is simply -log10 of the concentration when that concentration is written in mol/L.

Study these solved cases before continuing.
Chemical structure: CNC(=O)[C@@H](c1ccccc1)N1CCc2cc(OC)c(OC)cc2[C@@H]1CCc1ccc(C(F)(F)F)cc1
Tested system: rat OX1R (Rattus norvegicus)
pKi: 7.90

Chemical structure: COc1ccnc(N2CCC3(CCCN(Cc4c[nH]c5ccccc45)C3=O)CC2)n1
Tested system: rat OX1R (Rattus norvegicus)
pKi: 6.62

Chemical structure: Cc1nc(C(=O)N2CCCC[C@H]2CNC(=O)c2cccc3occc23)c(-c2ccc(F)cc2)s1
Tested system: rat OX1R (Rattus norvegicus)
pKi: 9.90

Exam item: Quick check: pKi on rat OX1R (Rattus norvegicus), item Cc1ccc(-c2ncccn2)c(C(=O)N2C[C@H](COc3ccc(F)cn3)CC[C@H]2C)c1 ?
Marked response: 9.21
